Read-out: growth arrest and DNA damage 45 (GADD45A), GADD45A (gene 1647)
assay protocol: LTEA_HepaRG_GADD45A: Life Technologies and Expression Analysis (LTEA) Assay for growth arrest and DNA damage 45 (GADD45A) using HepaRG (AID 2283458)
measurement parameters: mRNA level, 48 h; actives raise or lower the signal
Activity calls are given as the source filed them. The calls were made as follows: active = hit-call score of the fitted dose curve at least 0.9, where 1 is the maximum; inactive = score below 0.9.
Write down one outcome, taken from active, inactive

[
  {
    "molecule": "Cc1cc(Cl)ccc1OCC(=O)O",
    "discrete label": "inactive"
  }
]

Exercise: In this assay, the call recorded for COC(=O)C=C(C)OP(=O)(OC)OC was what?
Key: inactive

Exercise: In this assay, the call recorded for CCc1nn(C)c(C(=O)NCc2ccc(C(C)(C)C)cc2)c1Cl was what?
Key: active

Exercise: In this assay, the call recorded for COP(=S)(OC)Oc1nc(Cl)c(Cl)cc1Cl was what?
Key: inactive
